# Tested on: off-target genomic sites
# test-details: Off-target oligo insertion based assay in HEK293_Cas9 cells, dgRNAs and sgRNAs (Tables 23, 24)
# Assay type: cell-based, human
# measurement-context: Table 24; TTR sgRNAs in HekCas9 cells, insertion detection method
Strand notation (5' to 3'): a small letter for the sugar, then the base; units joined by * are phosphorothioate-linked, units joined directly phosphodiester-linked; [ ] holds rarer units or linkages, { } end groups; capitals alone tell only the bases. m = 2'-O-methyl; r = 2'-OH (RNA)
In plain terms, low # Sites (off-target integration sites detected), meaning strictly below 20, gives 1 (yes), and everything else gives 0 (no).

Strictly below 20: is that where # Sites (off-target integration sites detected) of G000494: TTR sgRNA modified sequence, Human, SEQ ID No. 101; guide sequence of CR003360 (nucleic acid) guide: mG*mU*mG*rArGrUrCrUrGrGrArGrArGrCrUrGrCrArUrGrUrUrUrUrArGrAmGmCmUmAmGmAmAmAmUmAmGmCrArArGrUrUrArArArArUrArArGrGrCrUrArGrUrCrCrGrUrUrArUrCrAmAmCmUmUmGmAmAmAmAmAmGmUmGmGmCmAmCmCmGmAmGmUmCmGmGmUmGmCmU*mU*mU*mU sits?
1 (yes)

Hello, is # Sites (off-target integration sites detected) of the following molecule strictly smaller than 20? G000486: TTR sgRNA modified sequence, Human, SEQ ID No. 93; guide sequence of CR003339 (nucleic acid) guide: mA*mC*mA*rCrArArArUrArCrCrArGrUrCrCrArGrCrArGrUrUrUrUrArGrAmGmCmUmAmGmAmAmAmUmAmGmCrArArGrUrUrArArArArUrArArGrGrCrUrArGrUrCrCrGrUrUrArUrCrAmAmCmUmUmGmAmAmAmAmAmGmUmGmGmCmAmCmCmGmAmGmUmCmGmGmUmGmCmU*mU*mU*mU
1 (yes)

Answer whether the molecule G000481: TTR sgRNA modified sequence, Human, SEQ ID No. 88; guide sequence of CR003345 (nucleic acid) guide: mU*mC*mU*rArGrArArCrUrUrUrGrArCrCrArUrCrArGrGrUrUrUrUrArGrAmGmCmUmAmGmAmAmAmUmAmGmCrArArGrUrUrArArArArUrArArGrGrCrUrArGrUrCrCrGrUrUrArUrCrAmAmCmUmUmGmAmAmAmAmAmGmUmGmGmCmAmCmCmGmAmGmUmCmGmGmUmGmCmU*mU*mU*mU has # Sites (off-target integration sites detected) strictly less than 20
1 (yes)

Given the entry G000483: TTR sgRNA modified sequence, Human, SEQ ID No. 90; guide sequence of CR005298 (nucleic acid) guide: mU*mC*mC*rArCrUrCrArUrUrCrUrUrGrGrCrArGrGrArGrUrUrUrUrArGrAmGmCmUmAmGmAmAmAmUmAmGmCrArArGrUrUrArArArArUrArArGrGrCrUrArGrUrCrCrGrUrUrArUrCrAmAmCmUmUmGmAmAmAmAmAmGmUmGmGmCmAmCmCmGmAmGmUmCmGmGmUmGmCmU*mU*mU*mU , would its reported # Sites (off-target integration sites detected) be below 20?
1 (yes)

Does G000498: TTR sgRNA modified sequence, Human, SEQ ID No. 105; guide sequence of CR003359 (nucleic acid) guide: mA*mG*mU*rGrArGrUrCrUrGrGrArGrArGrCrUrGrCrArGrUrUrUrUrArGrAmGmCmUmAmGmAmAmAmUmAmGmCrArArGrUrUrArArArArUrArArGrGrCrUrArGrUrCrCrGrUrUrArUrCrAmAmCmUmUmGmAmAmAmAmAmGmUmGmGmCmAmCmCmGmAmGmUmCmGmGmUmGmCmU*mU*mU*mU have # Sites (off-target integration sites detected) strictly under 20?
0 (no)

# strict comparison: is reported # Sites (off-target integration sites detected) < 20? input = G000570: TTR sgRNA modified sequence, Human, SEQ ID No. 111; guide sequence of CR003347 (nucleic acid) guide: mC*mA*mU*rUrGrArUrGrGrCrArGrGrArCrUrGrCrCrUrGrUrUrUrUrArGrAmGmCmUmAmGmAmAmAmUmAmGmCrArArGrUrUrArArArArUrArArGrGrCrUrArGrUrCrCrGrUrUrArUrCrAmAmCmUmUmGmAmAmAmAmAmGmUmGmGmCmAmCmCmGmAmGmUmCmGmGmUmGmCmU*mU*mU*mU
1 (yes)

Is the reported # Sites (off-target integration sites detected) for G000571: TTR sgRNA modified sequence, Human, SEQ ID No. 112; guide sequence of CR005301 (nucleic acid) guide: mG*mU*mC*rArCrArGrArArArCrArCrUrCrArCrCrGrUrGrUrUrUrUrArGrAmGmCmUmAmGmAmAmAmUmAmGmCrArArGrUrUrArArArArUrArArGrGrCrUrArGrUrCrCrGrUrUrArUrCrAmAmCmUmUmGmAmAmAmAmAmGmUmGmGmCmAmCmCmGmAmGmUmCmGmGmUmGmCmU*mU*mU*mU strictly below 20?
1 (yes)

Answer whether the molecule G000493: TTR sgRNA modified sequence, Human, SEQ ID No. 100; guide sequence of CR003368 (nucleic acid) guide: mA*mA*mG*rUrGrCrCrUrUrCrCrArGrUrArArGrArUrUrGrUrUrUrUrArGrAmGmCmUmAmGmAmAmAmUmAmGmCrArArGrUrUrArArArArUrArArGrGrCrUrArGrUrCrCrGrUrUrArUrCrAmAmCmUmUmGmAmAmAmAmAmGmUmGmGmCmAmCmCmGmAmGmUmCmGmGmUmGmCmU*mU*mU*mU has # Sites (off-target integration sites detected) strictly less than 20
1 (yes)

Given the entry G000567: TTR sgRNA modified sequence, Human, SEQ ID No. 109; guide sequence of CR003352 (nucleic acid) guide: mG*mA*mA*rArGrGrCrUrGrCrUrGrArUrGrArCrArCrCrGrUrUrUrUrArGrAmGmCmUmAmGmAmAmAmUmAmGmCrArArGrUrUrArArArArUrArArGrGrCrUrArGrUrCrCrGrUrUrArUrCrAmAmCmUmUmGmAmAmAmAmAmGmUmGmGmCmAmCmCmGmAmGmUmCmGmGmUmGmCmU*mU*mU*mU , would its reported # Sites (off-target integration sites detected) be below 20?
1 (yes)

# Sites (off-target integration sites detected) under 20? Item: G000492: TTR sgRNA modified sequence, Human, SEQ ID No. 99; guide sequence of CR003342 (nucleic acid) guide: mC*mU*mU*rCrUrCrUrArCrArCrCrCrArGrGrGrCrArCrGrUrUrUrUrArGrAmGmCmUmAmGmAmAmAmUmAmGmCrArArGrUrUrArArArArUrArArGrGrCrUrArGrUrCrCrGrUrUrArUrCrAmAmCmUmUmGmAmAmAmAmAmGmUmGmGmCmAmCmCmGmAmGmUmCmGmGmUmGmCmU*mU*mU*mU
0 (no)

Dear reviewer, please state whether G000495: TTR sgRNA modified sequence, Human, SEQ ID No. 102; guide sequence of CR003343 (nucleic acid) guide: mC*mA*mG*rArGrGrArCrArCrUrUrGrGrArUrUrCrArCrGrUrUrUrUrArGrAmGmCmUmAmGmAmAmAmUmAmGmCrArArGrUrUrArArArArUrArArGrGrCrUrArGrUrCrCrGrUrUrArUrCrAmAmCmUmUmGmAmAmAmAmAmGmUmGmGmCmAmCmCmGmAmGmUmCmGmGmUmGmCmU*mU*mU*mU has # Sites (off-target integration sites detected) strictly beneath 20.
1 (yes)

# check: # Sites (off-target integration sites detected) < 20 for G000490: TTR sgRNA modified sequence, Human, SEQ ID No. 97; guide sequence of CR003366 (nucleic acid) guide: mA*mA*mA*rUrArGrArCrArCrCrArArArUrCrUrUrArCrGrUrUrUrUrArGrAmGmCmUmAmGmAmAmAmUmAmGmCrArArGrUrUrArArArArUrArArGrGrCrUrArGrUrCrCrGrUrUrArUrCrAmAmCmUmUmGmAmAmAmAmAmGmUmGmGmCmAmCmCmGmAmGmUmCmGmGmUmGmCmU*mU*mU*mU
1 (yes)

Where do these numbers come from? They come from patent US11795460B2.
